System: HCC-827
Assay: relative viability (nuclei count vs DMSO), 5 days (fraction); higher = more cells survive
Details: first compound 0.253 µM
Could you please report measured relative viability for the items listed next?
Numbers only.

O=c1[nH]c2ccccc2n1C1CCN(CCCC(c2ccc(F)cc2)c2ccc(F)cc2)CC1 [Pimozide] + CC1(C)CCC(c2ccc(Cl)cc2)=C(CN2CCN(c3ccc(C(=O)NS(=O)(=O)c4ccc(N[C@H](CCN5CCOCC5)CSc5ccccc5)c(S(=O)(=O)C(F)(F)F)c4)cc3)CC2)C1 [Navitoclax] (partner 0.5 µM); 1.03
Cc1cnc(-c2cnc(NCCNc3ccc(C#N)cn3)nc2-c2ccc(Cl)cc2Cl)[nH]1 + O=C(c1cc(Cc2n[nH]c(=O)c3ccccc23)ccc1F)N1CCN(C(=O)C2CC2)CC1 [Olaparib] (partner 8 µM); 0.514

Now turn to the next molecule.
[in] Request: relative viability, test system HCC-827, entry O=c1[nH]c2ccccc2n1C1CCN(CCCC(c2ccc(F)cc2)c2ccc(F)cc2)CC1 [Pimozide] + CC(=O)Nc1cccc(-n2c(=O)n(C3CC3)c(=O)c3c(Nc4ccc(I)cc4F)n(C)c(=O)c(C)c32)c1 [Trametinib] (partner 0.02 µM)
[out] 0.538

// data source = the supplement of paper PMC10307832
